Molecular target: human TG2 in THP-1/TG2 macrophages (Homo sapiens)
Construct: expressed in transfected cells; host or cells: THP-1 (TIB-202, ATCC) stably transduced with lentiviral pCDH-hTG2, PMA-differentiated, retinoic acid-stimulated
Sequence (P21980 1-687): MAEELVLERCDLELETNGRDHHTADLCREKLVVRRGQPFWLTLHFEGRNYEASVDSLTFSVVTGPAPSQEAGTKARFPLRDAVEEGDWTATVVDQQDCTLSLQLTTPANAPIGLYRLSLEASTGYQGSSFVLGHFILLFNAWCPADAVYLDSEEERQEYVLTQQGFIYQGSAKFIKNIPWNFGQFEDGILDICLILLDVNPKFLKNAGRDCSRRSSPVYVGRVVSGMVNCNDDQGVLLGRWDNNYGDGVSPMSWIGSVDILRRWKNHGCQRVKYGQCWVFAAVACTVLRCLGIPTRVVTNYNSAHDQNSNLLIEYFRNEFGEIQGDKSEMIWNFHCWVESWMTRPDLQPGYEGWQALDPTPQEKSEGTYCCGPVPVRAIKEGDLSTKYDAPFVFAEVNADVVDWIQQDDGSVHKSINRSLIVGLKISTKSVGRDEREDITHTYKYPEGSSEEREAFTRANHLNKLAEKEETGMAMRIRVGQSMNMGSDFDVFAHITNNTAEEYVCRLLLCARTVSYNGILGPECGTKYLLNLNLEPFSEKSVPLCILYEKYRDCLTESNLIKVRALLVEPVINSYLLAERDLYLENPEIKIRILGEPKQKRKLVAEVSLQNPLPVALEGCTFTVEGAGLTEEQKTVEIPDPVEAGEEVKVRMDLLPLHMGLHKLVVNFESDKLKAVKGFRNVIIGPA
Assay: Cellular inhibition of TG activity in THP-1/TG2 cells (BAP incorporation)
Type: cell-based
Conditions: TG2 overexpressing THP-1 macrophages, Fig 2D; read-out: IC50 cellular TG2 transamidating activity
OBSERVABLE: pIC50
Give only the number. pIC50 is defined as minus log10 of concentration in molar units.

Exercise: For C=CC(=O)NC1CCN(S(=O)(=O)c2cccc3c(NC(=O)c4ccc(OC)c(OC)c4)cccc23)CC1 [BJJF078] , what is its reported pIC50?
Key: 5.74

Every entry's value here was drawn from paper PMC5918173.
